# test_target: PI3K β (p110β/p85α) (Homo sapiens, UniProt P42338)
# Construct: purchased Upstate / Millipore Corporation
# Sequence (P42338 whole entry): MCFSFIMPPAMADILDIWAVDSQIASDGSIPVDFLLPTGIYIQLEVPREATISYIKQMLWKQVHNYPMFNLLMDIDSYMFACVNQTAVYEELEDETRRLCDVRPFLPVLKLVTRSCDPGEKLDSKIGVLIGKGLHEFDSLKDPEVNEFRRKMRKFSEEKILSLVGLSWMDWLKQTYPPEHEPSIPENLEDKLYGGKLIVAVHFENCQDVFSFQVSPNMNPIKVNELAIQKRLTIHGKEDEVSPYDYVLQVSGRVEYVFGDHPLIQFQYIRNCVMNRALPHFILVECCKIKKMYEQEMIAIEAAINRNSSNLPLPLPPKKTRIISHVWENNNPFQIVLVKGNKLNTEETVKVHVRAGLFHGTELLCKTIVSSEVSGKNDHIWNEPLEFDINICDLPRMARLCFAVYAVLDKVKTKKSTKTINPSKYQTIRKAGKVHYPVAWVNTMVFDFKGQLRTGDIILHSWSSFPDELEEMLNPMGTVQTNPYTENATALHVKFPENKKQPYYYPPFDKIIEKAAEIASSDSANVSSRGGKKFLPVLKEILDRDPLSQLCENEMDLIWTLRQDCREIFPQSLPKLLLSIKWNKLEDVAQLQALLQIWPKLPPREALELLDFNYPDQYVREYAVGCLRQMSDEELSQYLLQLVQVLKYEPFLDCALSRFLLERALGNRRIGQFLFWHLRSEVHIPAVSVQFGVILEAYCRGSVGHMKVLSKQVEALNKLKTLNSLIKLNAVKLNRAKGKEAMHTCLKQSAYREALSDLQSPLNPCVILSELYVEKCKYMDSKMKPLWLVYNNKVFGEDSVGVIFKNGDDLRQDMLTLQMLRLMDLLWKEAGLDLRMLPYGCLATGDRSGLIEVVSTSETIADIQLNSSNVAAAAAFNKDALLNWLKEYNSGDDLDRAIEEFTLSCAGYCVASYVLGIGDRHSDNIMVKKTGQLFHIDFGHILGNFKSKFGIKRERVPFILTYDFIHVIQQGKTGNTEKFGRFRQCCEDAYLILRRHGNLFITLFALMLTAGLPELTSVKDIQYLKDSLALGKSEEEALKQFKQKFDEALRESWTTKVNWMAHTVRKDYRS
# Sequence (P27986 whole entry partner): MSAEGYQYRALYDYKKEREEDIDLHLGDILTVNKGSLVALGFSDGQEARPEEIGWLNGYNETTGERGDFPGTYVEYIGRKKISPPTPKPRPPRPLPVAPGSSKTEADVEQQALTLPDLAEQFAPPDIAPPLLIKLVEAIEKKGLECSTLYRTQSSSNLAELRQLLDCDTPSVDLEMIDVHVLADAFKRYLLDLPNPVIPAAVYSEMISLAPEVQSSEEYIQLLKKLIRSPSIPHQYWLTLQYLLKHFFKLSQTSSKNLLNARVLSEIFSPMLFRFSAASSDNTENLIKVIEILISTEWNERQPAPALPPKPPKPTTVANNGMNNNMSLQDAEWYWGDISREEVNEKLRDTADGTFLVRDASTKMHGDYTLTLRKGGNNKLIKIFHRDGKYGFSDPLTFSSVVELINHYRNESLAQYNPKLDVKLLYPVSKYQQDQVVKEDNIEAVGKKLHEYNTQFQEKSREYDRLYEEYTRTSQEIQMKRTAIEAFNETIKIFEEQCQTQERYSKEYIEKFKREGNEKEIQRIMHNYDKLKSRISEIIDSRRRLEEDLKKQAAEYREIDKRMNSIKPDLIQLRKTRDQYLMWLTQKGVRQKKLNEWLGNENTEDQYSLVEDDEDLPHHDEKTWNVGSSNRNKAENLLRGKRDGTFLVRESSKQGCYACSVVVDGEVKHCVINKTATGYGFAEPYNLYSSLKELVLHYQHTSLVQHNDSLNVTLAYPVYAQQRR
# experiment: PI 3-Kinase (human) HTRF assay, PI3K β
# Type: biochemical
# reported_conditions: Table 4 (PI3K α inhibitors); read-out: PI3K β IC50
Please go through the items and note down their IC50.

Data request: Form field: reported IC50 of C[C@H]1CN(c2cnc3ccc(-c4ccc5oc(N)nc5c4)nc3n2)CCN1
Data returned: < 0.1 µM

Data request: Form field: reported IC50 of CC(C)(N)C(=O)N1CCN(c2cnc3ccc(-c4ccc5oc(N)nc5c4)nc3c2)CC1
Data returned: < 10 µM

Data request: Form field: reported IC50 of CCN(CC)c1cnc2ccc(-c3ccc4oc(N)nc4c3)nc2n1
Data returned: > 10 µM

Data request: Form field: reported IC50 of CN1CCN(c2cnc3ccc(-c4ccc5oc(N)nc5c4)nc3n2)CC1
Data returned: < 1 µM

Data request: Form field: reported IC50 of C[C@@H]1CN(C2CN(c3cnc4ccc(-c5ccc6oc(N)nc6c5)nc4n3)C2)CCN1
Data returned: > 10 µM

Data request: Form field: reported IC50 of CCN1CCN(C2CN(c3cnc4ccc(-c5ccc6oc(N)nc6c5)nc4c3)C2)CC1
Data returned: < 1 µM

Data request: Form field: reported IC50 of C[C@H]1CN(C2CN(c3cnc4ccc(-c5ccc6oc(N)nc6c5)nc4n3)C2)CCN1C [Compound 606]
Data returned: < 10 µM

Data request: Form field: reported IC50 of Nc1nc2cc(-c3ccc4ncc(N5CCN(C(=O)C6(N)CC6)CC5)nc4n3)ccc2o1
Data returned: < 10 µM
